type: in vivo, human; conditions: human, plasma, oral, 400 mg
readout: half-life (h)
Report the value in h with no unit label.

half-life for Cc1cccc(C)c1N(CC(=O)Nc1ccc(-c2ncon2)cc1)C(=O)C1CCS(=O)(=O)CC1 is 8

----------
type: in vivo, human; details: human, plasma, oral, 200 mg
readout: t max (h)
The response must be a number in h with no trailing unit.

Record Cc1ncc2n1-c1ccc(Cl)cc1C(c1ccccc1F)=NC2 [Midazolam, midazolam] . Reported t max: 1.5

----------
assay type: in vivo, human; details: human, plasma, oral, 400 mg
readout: Cmax (ng/mL)
Quick note: give the figure in ng/mL, leave out the unit.

Recorded Cmax (molecule Cc1cccc(C)c1N(CC(=O)Nc1ccc(-c2ncon2)cc1)C(=O)C1CCS(=O)(=O)CC1 ): 1320
